Biological target: T1, human BCMA on cells (NCI-H929, U266B1, HEK293 huBCMA) (human, UniProt Q02223 1-184)
T1 construct: whole, on cells; also called cell surface BCMA antigen
T1 sequence (looked up): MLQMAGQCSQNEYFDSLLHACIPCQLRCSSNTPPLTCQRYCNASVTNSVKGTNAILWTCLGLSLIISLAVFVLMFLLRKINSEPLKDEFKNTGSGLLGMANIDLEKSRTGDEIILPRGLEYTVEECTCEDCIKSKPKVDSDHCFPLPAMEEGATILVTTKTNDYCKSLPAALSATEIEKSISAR
Assay: flow cytometry on NCI-H929 cells
Examples of binders with documented EC50 follow.
readout.label: EC50

| binder | readout.label | observed.measurement |
| --- | --- | --- |
| human-mouse chimeric antibody c-mAb3 (antibody, human IgG1, V domains shown, not shown: human IgG1 heavy chain constant region, GenBank No. AK303185.1; human kappa light chain constant region, GenBank No. MG815648.1) VH: EVQLQQSGPELVKPGASVKILCKASGYTITDYNMDWVKRSHGKSLEWIGNINPHNGGSIYNQKFKGKATLTVDKSSSTAFMELRSLTSEDTAVYYCARGDATLVLDYWGQGTSLTVSS VL: DIVLTQSPASLAVSLGQRATISCRASKSVSTSGLSYMHWYQQKPGQPPKVLIYLASNLESGVPARFSGSGSGTDFTLNIHPVEEEDAATYYCQHSRELPPTFGAGTKLELK | EC50 | 8.25 nM |
| humanized antibody hu-mAb2 (VH2+VL2) (antibody, V domains shown, human IgG1/kappa named only as preferred) VH: QVQLVQSGAEVKKPGSSVKVSCKVSGYTFTDHTIHWMKQAPGQGLEWIGYIYPRNGNTKYNEKFKGKATLTADKSTSTAYMELSSLRSEDTAVYFCARYDYDGYFDVWGQGTLVTVSS VL: DVVMTQTPLSLSVTPGQPASISCRSSQSHVHSDGHTYLHWYLQKPGQSPELLIYKVSNRFSGVPDRFSGSGSGTDFTLKISRVEAEDVGVYFCSQNTHFPWTFGGGTKVEIK | EC50 | 0.83 nM |
| human-mouse chimeric antibody c-mAb2 (antibody, human IgG1, V domains shown, not shown: human IgG1 heavy chain constant region, GenBank No. AK303185.1; human kappa light chain constant region, GenBank No. MG815648.1) VH: QVQLQQSDAELVKPGTSVKISCKVSGYTFTDHTIHWMKQRPEQGLEWIGYIYPRNGNTKYNEKFKGKATLTADKSSSTAYMHLNSLTSEDSAVYFCARYDYDGYFDVWGTGTTVTVSS VL: DVVMTQTPLSLPVSLGDQASISCRSSQSHVHSDGHTYLHWYLQKPGQSPELLIYKVSNRFSGVPDRFSGSGSGTDFTLKISRVEAEDLGVYFCSQNTHFPWTFGGGTKLEIK | EC50 | 5.7 nM |
